Field: pIC50. Provide a value for each of the compounds that follow.
tested on: DLD-1; assay: Cytotoxicity against human DLD1 cells assessed as cell viability after 96 hrs by SRB assay; type: functional, cell-based; settings: Homo sapiens, DLD-1, 96 h
Give bare numbers, as −log10 of the molar value.

smiles_code=C=C(C)[C@@H]1CC[C@]2([C@H](O)C#CCN3CCSCC3)CC[C@]3(C)[C@H](CC[C@@H]4[C@@]5(C)CC[C@H](OC(C)=O)C(C)(C)[C@@H]5CC[C@]43C)[C@@H]12 target_desc=DLD-1 result_type=pIC50 observed_measurement=4.72

Let us examine a further case.
Return pIC50 (reported value) for this compound: C=C(C)[C@@H]1CC[C@]2([C@@H](O)CCCN(C(C)C)C(C)C)CC[C@]3(C)[C@H](CC[C@@H]4[C@@]5(C)CC[C@H](O)C(C)(C)[C@@H]5CC[C@]43C)[C@@H]12 5.64

---

experiment: Cytotoxicity against human A253 cells assessed as cell viability after 96 hrs by SRB assay; assay type: functional, cell-based; conditions: a253
result type: IC50

Quickly give me recorded IC50 for C=CCN(CC#C[C@@H](O)[C@]12CC[C@@H](C(=C)C)[C@@H]1[C@H]1CC[C@@H]3[C@@]4(C)CC[C@H](OC(C)=O)C(C)(C)[C@@H]4CC[C@@]3(C)[C@]1(C)CC2)CC=C 32.8 µM

---

Exercise: for every item that follows, state its recorded pIC50.
assay: Cytotoxicity against human Lipo cells assessed as cell viability after 96 hrs by SRB assay; format: functional, cell-based; conditions: Homo sapiens, Lipo, 96 h
One number for each entry, as −log10 of the molar value.

// known answers, use as guide
smiles_code=C=C(C)[C@@H]1CC[C@]2([C@@H](O)C#CCN3CCCC3)CC[C@]3(C)[C@H](CC[C@@H]4[C@@]5(C)CC[C@H](OC(C)=O)C(C)(C)[C@@H]5CC[C@]43C)[C@@H]12 observed_measurement=4.94
smiles_code=C=CCN(CC#C[C@@H](O)[C@]12CC[C@@H](C(=C)C)[C@@H]1[C@H]1CC[C@@H]3[C@@]4(C)CC[C@H](OC(C)=O)C(C)(C)[C@@H]4CC[C@@]3(C)[C@]1(C)CC2)CC=C observed_measurement=4.66
smiles_code=C=C(C)[C@@H]1CC[C@]2([C@H](O)C#CCN(C(C)C)C(C)C)CC[C@]3(C)[C@H](CC[C@@H]4[C@@]5(C)CC[C@H](O)C(C)(C)[C@@H]5CC[C@]43C)[C@@H]12 observed_measurement=4.99
smiles_code=C#C[C@H](O)[C@]12CC[C@@H](C(=C)C)[C@@H]1[C@H]1CC[C@@H]3[C@@]4(C)CCC(=O)C(C)(C)[C@@H]4CC[C@@]3(C)[C@]1(C)CC2 observed_measurement=4.66

# input for lookup
Please report pIC50 for the following compound: C=C(C)[C@@H]1CC[C@]2([C@@H](O)CCCN(C(C)C)C(C)C)CC[C@]3(C)[C@H](CC[C@@H]4[C@@]5(C)CC[C@H](O)C(C)(C)[C@@H]5CC[C@]43C)[C@@H]12 5.64

---

Kindly supply the reported IC50 values for the records listed here.
system: MCF7; assay: Cytotoxicity against human MCF7 cells assessed as cell viability after 96 hrs by SRB assay; type: functional, cell-based; settings: Homo sapiens, MCF7, 96 h
One number for each entry, in µM.

smiles_code=C=C(C)[C@@H]1CC[C@]2([C@@H](O)CCCN(C(C)C)C(C)C)CC[C@]3(C)[C@H](CC[C@@H]4[C@@]5(C)CC[C@H](O)C(C)(C)[C@@H]5CC[C@]43C)[C@@H]12 target_desc=MCF7 unit_descriptor=µM observed_measurement=0.7
smiles_code=C=C(C)[C@@H]1CC[C@]2([C@H](O)C#CCN(C(C)C)C(C)C)CC[C@]3(C)[C@H](CC[C@@H]4[C@@]5(C)CC[C@H](O)C(C)(C)[C@@H]5CC[C@]43C)[C@@H]12 target_desc=MCF7 unit_descriptor=µM observed_measurement=8.2
smiles_code=C#C[C@H](O)[C@]12CC[C@@H](C(=C)C)[C@@H]1[C@H]1CC[C@@H]3[C@@]4(C)CC[C@H](O)C(C)(C)[C@@H]4CC[C@@]3(C)[C@]1(C)CC2 target_desc=MCF7 unit_descriptor=µM observed_measurement=11.9

Moving on to another compound below.
Dear colleague, please send me the reported IC50 for C=C(C)[C@@H]1CC[C@]2([C@@H](O)C#CCN3CCCC3)CC[C@]3(C)[C@H](CC[C@@H]4[C@@]5(C)CC[C@H](OC(C)=O)C(C)(C)[C@@H]5CC[C@]43C)[C@@H]12 when you can. 7.7
